Data credit: patent US4316011A

Test system: RNA synthesis in murine leukemic L 1210 cells
Assay: RNA biosynthesis in L 1210 cells (14C-uridine incorporation)
Format: cell-based
Details: Mus musculus, L1210, 15 min with compound then 60 min 14C-uridine, 37° C.
assayMetric: IC50
Numeric answer plus unit only.

Field: example entries. Status: answers known.
- CCC1(O)CCc2c(O)c3c(c(O)c2C1OC1CC(N(C)C)C(OC2CC(O)C(OC4CCC(O)C(C)O4)C(C)O2)C(C)O1)C(=O)c1cccc(O)c1C3=O (stereo not drawn) [γ-Rhodomycin RDRs]: 0.3 µg/mL
- CCC1(O)CC(OC2CC(N(C)C)C(OC3CC(O)C(OC4CCC(=O)C(C)O4)C(C)O3)C(C)O2)c2c(O)c3c(c(O)c2C1O)C(=O)c1cccc(O)c1C3=O (stereo not drawn) [β-Rhodomycin RDC]: 0.15 µg/mL
- CCC1(O)CCc2c(O)c3c(c(O)c2C1OC1CC(N(C)C)C(OC2CC(O)C(OC4CCC(=O)C(C)O4)C(C)O2)C(C)O1)C(=O)c1cccc(O)c1C3=O (stereo not drawn) [γ-Rhodomycin RDC]: 0.28 µg/mL

Fill blank: measured IC50 of the molecule CCC1(O)CC(OC2CC(N(C)C)C(OC3CC(O)C(OC4CCC(=O)C(C)O4)C(C)O3)C(C)O2)c2c(O)c3c(c(O)c2C1C(=O)OC)C(=O)c1c(O)ccc(O)c1C3=O (stereo not drawn) [ε-Isorhodomycin RDC] is ____.
0.11 µg/mL

Fill blank: measured IC50 of the molecule CCC1(O)CC(OC2CC(N(C)C)C(OC3CC(O)C(OC4CCC(=O)C(C)O4)C(C)O3)C(C)O2)c2c(cc3c(c2O)C(=O)c2c(O)ccc(O)c2C3=O)C1O (stereo not drawn) [β-Pyrromycin RDC] is ____.
1.5 µg/mL

Fill blank: measured IC50 of the molecule CCC1(O)CC(OC2CC(N(C)C)C(OC3CC(O)C(OC4CCC(=O)C(C)O4)C(C)O3)C(C)O2)c2c(O)c3c(c(O)c2C1C(=O)OC)C(=O)c1cccc(O)c1C3=O (stereo not drawn) [ε-Rhodomycin RDC] is ____.
0.08 µg/mL

----------
Test: Acute toxicity in mice, single intravenous injection
Conditions: mouse, in vivo
Threshold 40 mg/kg: LD50 strictly smaller gives Criterion met, otherwise Criterion not met.

Example entries begin here.
* CCC1(O)CC(OC2CC(N(C)C)C(OC3CC(O)C(OC4CCC(=O)C(C)O4)C(C)O3)C(C)O2)c2c(O)c3c(c(O)c2C1C(=O)OC)C(=O)c1c(O)ccc(O)c1C3=O (stereo not shown) [ε-Isorhodomycin RDC] | Criterion met
* CCC1(O)CC(OC2CC(N(C)C)C(OC3CC(O)C(OC4CCC(=O)C(C)O4)C(C)O3)C(C)O2)c2c(cc3c(c2O)C(=O)c2c(O)ccc(O)c2C3=O)C1O (stereo not drawn) [β-Pyrromycin RDC] | Criterion not met
* COc1cccc2c1C(=O)c1c(O)c3c(c(O)c1C2=O)C[C@@](O)(C(=O)CO)C[C@@H]3O[C@H]1C[C@H](N)[C@H](O)[C@H](C)O1 [Adriamycin, reference compound] | Criterion met
* CCC1(O)CC(OC2CC(N(C)C)C(OC3CC(O)C(OC4CCC(=O)C(C)O4)C(C)O3)C(C)O2)c2c(O)c3c(c(O)c2C1O)C(=O)c1cccc(O)c1C3=O (stereo not drawn) [β-Rhodomycin RDC] | Criterion met

Dear reviewer, please state whether CCC1(O)CC(OC2CC(N(C)C)C(OC3CC(O)C(OC4CCC(=O)C(C)O4)C(C)O3)C(C)O2)c2c(O)c3c(c(O)c2C1C(=O)OC)C(=O)c1cccc(O)c1C3=O (stereo not shown) [ε-Rhodomycin RDC] has LD50 strictly beneath 40 mg/kg.
Criterion met
